biological target: Agrobacterium tumefaciens AtThuE sensor FLIPsuc4μ variant D115E (FLIPsuc3m, FLIPsucD115E) (Agrobacterium fabrum, UniProt A9CF11, D135E/N212D); assay: in vitro FRET titration of affinity mutant FLIPsuc3m; format: binding; conditions: Kd, FRET titration
Each item that follows carries a reported Kd.
Reply numerically in mM, unit not repeated.

Worked set:
compound="OC[C@H]1OC(O)[C@H](O)[C@@H](O)[C@@H]1O (stereo partly drawn)" endpoint_unit=mM endpoint_result=9.1
compound="OC[C@H]1O[C@H](O[C@H]2[C@H](O)[C@@H](O)C(O)O[C@@H]2CO)[C@H](O)[C@@H](O)[C@@H]1O (stereo partly drawn)" endpoint_unit=mM endpoint_result=1.5

We next turn to a different compound, shown below.
Task item: Please give the measured Kd for this compound: OC[C@H]1O[C@@](CO)(O[C@H]2O[C@H](CO)[C@@H](O)[C@H](O)[C@H]2O)[C@@H](O)[C@@H]1O
Reply: 2.9

----------
target: Agrobacterium tumefaciens AtThuE sensor FLIPsuc4μ variant Y246A (FLIPsuc15m, FLIPsucY246A) (Agrobacterium fabrum, UniProt A9CF11, N212D/Y266A); assay: in vitro FRET titration of affinity mutant FLIPsuc15m
value type: pKd
Give only the number. pKd is defined as minus log10 of concentration in molar units.

compound="OC[C@H]1O[C@@](CO)(O[C@H]2O[C@H](CO)[C@@H](O)[C@H](O)[C@H]2O)[C@@H](O)[C@@H]1O [sucrose]" endpoint_result=1.84
compound="OC[C@H]1O[C@H](O[C@H]2[C@H](O)[C@@H](O)C(O)O[C@@H]2CO)[C@H](O)[C@@H](O)[C@@H]1O (stereo partly drawn) [maltose]" endpoint_result=4.25

Task item: I am curious: what pKd value has been reported for OC[C@H]1OC(O)[C@H](O)[C@@H](O)[C@@H]1O (stereo partly drawn) [glucose] ?
Reply: 3.26

----------
Reported pKd values are given for each entry in this list.
target: Agrobacterium tumefaciens AtThuE sensor FLIPsuc4μ variant W283A (FLIPsuc88μ, FLIPsucW283A) (Agrobacterium fabrum, UniProt A9CF11, N212D/W303A); test: in vitro FRET titration of affinity mutant FLIPsuc88μ; assay type: binding; conditions: Kd, in vitro, 20 mM MOPS pH 7, FRET titration
Conceptually, pKd converts a concentration in mol/L into minus its log10.

molecule="OC[C@H]1O[C@H](O[C@H]2[C@H](O)[C@@H](O)C(O)O[C@@H]2CO)[C@H](O)[C@@H](O)[C@@H]1O (stereo partly drawn) [maltose]" value_type=pKd endpoint_result=3.58
molecule="OC[C@H]1O[C@@](CO)(O[C@H]2O[C@H](CO)[C@@H](O)[C@H](O)[C@H]2O)[C@@H](O)[C@@H]1O [sucrose]" value_type=pKd endpoint_result=4.06

Now examine the next entry.
Task item: Given the entry OC[C@H]1OC(O)[C@H](O)[C@@H](O)[C@@H]1O (stereo partly drawn) [glucose] , report its measured pKd.
Reply: 2.14

----------
target: Agrobacterium tumefaciens AtThuE sensor FLIPsuc4μ variant D115A (FLIPsuc1m, FLIPsucD115A) (Agrobacterium fabrum, UniProt A9CF11, D135A/N212D); test: in vitro FRET titration of affinity mutant FLIPsuc1m; type: binding; settings: Kd, FRET titration
value type: Kd (mM)
Output spec: scalar in mM, unitless text.

compound="OC[C@H]1OC(O)[C@H](O)[C@@H](O)[C@@H]1O (some centres unmarked)" value_type=Kd endpoint_result=16

Task item: Query (compound): OC[C@H]1O[C@@](CO)(O[C@H]2O[C@H](CO)[C@@H](O)[C@H](O)[C@H]2O)[C@@H](O)[C@@H]1O ; field requested: Kd
Reply: 1.4

----------
target: Agrobacterium tumefaciens AtThuE sensor FLIPsuc4μ variant W283A (FLIPsuc88μ, FLIPsucW283A) (Agrobacterium fabrum, UniProt A9CF11, N212D/W303A); assay: in vitro FRET titration of affinity mutant FLIPsuc88μ; format: binding; settings: Kd, in vitro, FRET titration
value type: pKd
By convention, pKd is the negative base-10 log of a molar concentration.

Task item: Recorded pKd for OC[C@H]1OC(O)[C@H](O)[C@@H](O)[C@@H]1O (stereo partly shown) , please?
Reply: 2.14

----------
target: Agrobacterium tumefaciens AtThuE sensor FLIPsuc4μ variant F113A (FLIPsuc10μ, FLIPsucF113A) (Agrobacterium fabrum, UniProt A9CF11, F133A/N212D); assay: in vitro FRET titration of affinity mutant FLIPsuc10μ
value type: Kd (µM)
Give the quantity in µM, number only.

Observe how each entry below is paired with its result.
molecule=OC[C@H]1O[C@@](CO)(O[C@H]2O[C@H](CO)[C@@H](O)[C@H](O)[C@H]2O)[C@@H](O)[C@@H]1O endpoint_result=10
molecule="OC[C@H]1OC(O)[C@H](O)[C@@H](O)[C@@H]1O (stereo partly drawn)" endpoint_result=106

Task item: Which measured Kd value corresponds to OC[C@H]1O[C@H](O[C@H]2[C@H](O)[C@@H](O)C(O)O[C@@H]2CO)[C@H](O)[C@@H](O)[C@@H]1O (stereo partly drawn) ?
Reply: 0.12

----------
biological target: Agrobacterium tumefaciens ThuE (AtThuE) sucrose binding protein carrying N192D (SEQ ID NO: 2) fused between ECFP and EYFP, sensor FLIPsuc4μ (FLIPsuc), wt (indic (Agrobacterium fabrum, UniProt A9CF11, N212D)); test: in vitro FRET titration of purified sensor FLIPsuc4μ; details: 5× Kd (20 μM), FRET micro plate assay (FIG. 4)
value type: binding (extent relative to sucrose)

compound="OC[C@H]1O[C@H](OC[C@H]2OC(O)(CO)[C@@H](O)[C@@H]2O)[C@H](O)[C@@H](O)[C@@H]1O (some centres unmarked) [palatinose]" endpoint_result="to lesser extent"
compound="OC[C@H]1OC(O)[C@H](O)[C@@H](O)[C@@H]1O (some centres unmarked) [glucose]" endpoint_result="to lesser extent"

----------
Molecular target: Agrobacterium tumefaciens AtThuE sensor FLIPsuc4μ variant W244A (FLIPsuc46m, FLIPsucW244A) (Agrobacterium fabrum, UniProt A9CF11, N212D/W264A)
Experiment: in vitro FRET titration of affinity mutant FLIPsuc46m
Description: Substrate titration curves and substrate specificity analysis were performed on Safire (Tecan) fluorometer. ECFP was excited at 433 nm and emission was set to 485 nm and 528 nm for ECFP and EYFP, respectively (bandwidth 12 nm). All in vitro analyses were performed in 20 mM MOPS buffer at pH 7. FRET was determined as EYFP-ECFP emission intensity ratio. […] Hill coefficients were determined using Hill equation 2: S=(n[S]^n)/(Kd+[S]^n). […]
Consider the following compounds and their measured pKd readings.
Units for pKd: none; it is -log10 of a concentration expressed in mol/L.

Task item: Consider the compound OC[C@H]1O[C@@](CO)(O[C@H]2O[C@H](CO)[C@@H](O)[C@H](O)[C@H]2O)[C@@H](O)[C@@H]1O [sucrose] and give its measured pKd.
Reply: 1.34

Task item: Quick check: pKd of OC[C@H]1O[C@H](O[C@H]2[C@H](O)[C@@H](O)C(O)O[C@@H]2CO)[C@H](O)[C@@H](O)[C@@H]1O (some centres unmarked) [maltose] ?
Reply: 1.58
